Measured values drawn from PubChem BioAssay AID1963437 for this set.

Test system: OVCAR-8 complex spheroid, growth inhibition
Assay: Anticancer human tumor OVCAR-8 cell line growth inhibition [Asc];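 note: spheroids exposed to agents for 7 days before readout; percent viability relative to DMSO vehicle wells taken as 100%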
Details: second compound 0.949 µM; first compound 0.01 µM; hits give low values
Text: Multicellular complex tumor spheroid response to apoptosis pathway targeting inhibitors Alrizomadlin, Pelcitoclax, and Dasminapant in combination with a variety of drugs and investigational agents in selected tumor cell lines […] Compounds. […] If the clinical Cmax for an agent had not been determined, the highest concentration tested was 10 microM. […]
Collected viability, T/C values appear next to each entry.
Just the number in %, nothing appended.

MOLECULE | UNITS SYMBOL | viability, T/C
O=C(c1ccc(F)c(F)c1Nc1ccc(I)cc1F)N1CC(O)([C@@H]2CCCCN2)C1 + CCN1C(C(=O)NC23CCC(C(=O)O)(CC2)CC3)C(c2cccc(Cl)c2F)C2(C(=O)Nc3cc(Cl)ccc32)C12CCCCC2 | % | 102
CCN1CCN(Cc2ccc(Nc3ncc(F)c(-c4cc(F)c5nc(C)n(C(C)C)c5c4)n3)nc2)CC1 + CCN1C(C(=O)NC23CCC(C(=O)O)(CC2)CC3)C(c2cccc(Cl)c2F)C2(C(=O)Nc3cc(Cl)ccc32)C12CCCCC2 | % | 86.6
COc1c(OCCCN2CCOCC2)ccc2c3n(c(=NC(=O)c4cnc(N)nc4)nc12)CCN3 + CCN1C(C(=O)NC23CCC(C(=O)O)(CC2)CC3)C(c2cccc(Cl)c2F)C2(C(=O)Nc3cc(Cl)ccc32)C12CCCCC2 | % | 89.8
CNC(C)C(=O)NC1CN(S(=O)(=O)c2cccc(S(=O)(=O)N3CCC4CCC(C(=O)NC(c5ccccc5)c5ccccc5)N4C(=O)C(NC(=O)C(C)NC)C3)c2)CCC2CCC(C(=O)NC(c3ccccc3)c3ccccc3)N2C1=O (stereo unspecified) + CCN1C(C(=O)NC23CCC(C(=O)O)(CC2)CC3)C(c2cccc(Cl)c2F)C2(C(=O)Nc3cc(Cl)ccc32)C12CCCCC2 | % | 89.1
Cn1ncnc1[C@H]1c2n[nH]c(=O)c3cc(F)cc(c23)N[C@@H]1c1ccc(F)cc1 + CCN1C(C(=O)NC23CCC(C(=O)O)(CC2)CC3)C(c2cccc(Cl)c2F)C2(C(=O)Nc3cc(Cl)ccc32)C12CCCCC2 | % | 97.1

Problem: Identify measured viability, T/C corresponding to NC1CCC(NC2CC2c2ccccc2)CC1 (stereo unspecified) + CCN1C(C(=O)NC23CCC(C(=O)O)(CC2)CC3)C(c2cccc(Cl)c2F)C2(C(=O)Nc3cc(Cl)ccc32)C12CCCCC2
Result: 105

* * *

test system: OVCAR-8 complex spheroid, growth inhibition; assay: Anticancer human tumor OVCAR-8 cell line growth inhibition [Asc]; conditions: second compound 3 µM; first compound 0.0316 µM; hits give low values;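 note: spheroids exposed to agents for 7 days before readout; percent viability relative to DMSO vehicle wells taken as 100%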
Collected viability, T/C values appear next to each entry.
Just the number in %, nothing appended.

Examples with answers:
MOLECULE | UNITS SYMBOL | TEST RESULT
COc1c(OCCCN2CCOCC2)ccc2c3n(c(=NC(=O)c4cnc(N)nc4)nc12)CCN3 + CCN1C(C(=O)NC23CCC(C(=O)O)(CC2)CC3)C(c2cccc(Cl)c2F)C2(C(=O)Nc3cc(Cl)ccc32)C12CCCCC2 | % | 133
C#Cc1c(F)ccc2cc(O)cc(-c3ncc4c(N5CC6CCC(C5)N6)nc(OCC56CCCN5CC(F)C6)nc4c3F)c12 (stereo unspecified) + CCN1C(C(=O)NC23CCC(C(=O)O)(CC2)CC3)C(c2cccc(Cl)c2F)C2(C(=O)Nc3cc(Cl)ccc32)C12CCCCC2 | % | 108
C=CC(=O)N1CCN(c2nc(=O)n(-c3c(C)ccnc3C(C)C)c3nc(-c4c(O)cccc4F)c(F)cc23)C(C)C1 (stereo unspecified) + CCN1C(C(=O)NC23CCC(C(=O)O)(CC2)CC3)C(c2cccc(Cl)c2F)C2(C(=O)Nc3cc(Cl)ccc32)C12CCCCC2 | % | 124
Cn1ncnc1[C@H]1c2n[nH]c(=O)c3cc(F)cc(c23)N[C@@H]1c1ccc(F)cc1 + CCN1C(C(=O)NC23CCC(C(=O)O)(CC2)CC3)C(c2cccc(Cl)c2F)C2(C(=O)Nc3cc(Cl)ccc32)C12CCCCC2 | % | 115
C=C(F)C(=O)N1CCN(c2nc(OCC3CCCN3C)nc3c2CCN(c2cccc4cccc(Cl)c24)C3)CC1CC#N (stereo unspecified) + CCN1C(C(=O)NC23CCC(C(=O)O)(CC2)CC3)C(c2cccc(Cl)c2F)C2(C(=O)Nc3cc(Cl)ccc32)C12CCCCC2 | % | 111

As a next step, examine the molecule that follows.
Problem: Tell me its viability, T/C on OVCAR-8 complex spheroid, growth inhibition: NC1CCC(NC2CC2c2ccccc2)CC1 (stereo unspecified) + CCN1C(C(=O)NC23CCC(C(=O)O)(CC2)CC3)C(c2cccc(Cl)c2F)C2(C(=O)Nc3cc(Cl)ccc32)C12CCCCC2
Result: 119

* * *

Collected viability, T/C values appear next to each entry.
test system: OVCAR-8 complex spheroid, growth inhibition; assay: Anticancer human tumor OVCAR-8 cell line growth inhibition [Asc]; details: second compound 0.0316 µM; first compound 0.0316 µM; hits give low values;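 note: spheroids exposed to agents for 7 days before readout; percent viability relative to DMSO vehicle wells taken as 100%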
Just the number in %, nothing appended.

Examples with answers:
COMPOUND | READOUT | TEST RESULT
C#Cc1c(F)ccc2cc(O)cc(-c3ncc4c(N5CC6CCC(C5)N6)nc(OCC56CCCN5CC(F)C6)nc4c3F)c12 (centres undefined) + CNC(C)C(=O)NC1CN(S(=O)(=O)c2cccc(S(=O)(=O)N3CCC4CCC(C(=O)NC(c5ccccc5)c5ccccc5)N4C(=O)C(NC(=O)C(C)NC)C3)c2)CCC2CCC(C(=O)NC(c3ccccc3)c3ccccc3)N2C1=O | viability, T/C | 89
CCN1CCN(Cc2ccc(Nc3ncc(F)c(-c4cc(F)c5nc(C)n(C(C)C)c5c4)n3)nc2)CC1 + Cc1c(S(C)(=O)=O)c(-c2cc(F)cc(N3CCN(c4ccc(NS(=O)(=O)c5ccc(NC(CCN6CCC(C(=O)OCCCP(=O)(O)O)CC6)CSc6ccccc6)c(S(=O)(=O)C(F)(F)F)c5)cc4)CC3)c2)c(-c2ccc(Cl)cc2)n1C(C)C | viability, T/C | 95.6
C=C(F)C(=O)N1CCN(c2nc(OCC3CCCN3C)nc3c2CCN(c2cccc4cccc(Cl)c24)C3)CC1CC#N (centres undefined) + Cc1c(S(C)(=O)=O)c(-c2cc(F)cc(N3CCN(c4ccc(NS(=O)(=O)c5ccc(NC(CCN6CCC(C(=O)OCCCP(=O)(O)O)CC6)CSc6ccccc6)c(S(=O)(=O)C(F)(F)F)c5)cc4)CC3)c2)c(-c2ccc(Cl)cc2)n1C(C)C | viability, T/C | 102

As a next step, examine the compound that follows.
Problem: Identify measured viability, T/C corresponding to C#Cc1c(F)ccc2cc(O)cc(-c3ncc4c(N5CC6CCC(C5)N6)nc(OCC56CCCN5CC(F)C6)nc4c3F)c12 (centres undefined) + Cc1c(S(C)(=O)=O)c(-c2cc(F)cc(N3CCN(c4ccc(NS(=O)(=O)c5ccc(NC(CCN6CCC(C(=O)OCCCP(=O)(O)O)CC6)CSc6ccccc6)c(S(=O)(=O)C(F)(F)F)c5)cc4)CC3)c2)c(-c2ccc(Cl)cc2)n1C(C)C
Result: 86.8

* * *

Collected viability, T/C values appear next to each entry.
test system: OVCAR-8 complex spheroid, growth inhibition; assay: Anticancer human tumor OVCAR-8 cell line growth inhibition [Asc]; conditions: second compound 0.00949 µM; first compound 0.01 µM; hits give low values;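 note: spheroids exposed to agents for 7 days before readout; percent viability relative to DMSO vehicle wells taken as 100%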
Just the number in %, nothing appended.

Examples with answers:
MOLECULE | UNITS SYMBOL | viability, T/C
CNC(C)C(=O)NC1CN(S(=O)(=O)c2cccc(S(=O)(=O)N3CCC4CCC(C(=O)NC(c5ccccc5)c5ccccc5)N4C(=O)C(NC(=O)C(C)NC)C3)c2)CCC2CCC(C(=O)NC(c3ccccc3)c3ccccc3)N2C1=O (stereo unspecified) + CCN1C(C(=O)NC23CCC(C(=O)O)(CC2)CC3)C(c2cccc(Cl)c2F)C2(C(=O)Nc3cc(Cl)ccc32)C12CCCCC2 | % | 83.8
CCN1CCN(Cc2ccc(Nc3ncc(F)c(-c4cc(F)c5nc(C)n(C(C)C)c5c4)n3)nc2)CC1 + CCN1C(C(=O)NC23CCC(C(=O)O)(CC2)CC3)C(c2cccc(Cl)c2F)C2(C(=O)Nc3cc(Cl)ccc32)C12CCCCC2 | % | 89.5
COc1c(OCCCN2CCOCC2)ccc2c3n(c(=NC(=O)c4cnc(N)nc4)nc12)CCN3 + CCN1C(C(=O)NC23CCC(C(=O)O)(CC2)CC3)C(c2cccc(Cl)c2F)C2(C(=O)Nc3cc(Cl)ccc32)C12CCCCC2 | % | 92.2
Cn1ncnc1[C@H]1c2n[nH]c(=O)c3cc(F)cc(c23)N[C@@H]1c1ccc(F)cc1 + CCN1C(C(=O)NC23CCC(C(=O)O)(CC2)CC3)C(c2cccc(Cl)c2F)C2(C(=O)Nc3cc(Cl)ccc32)C12CCCCC2 | % | 111
NC1CCC(NC2CC2c2ccccc2)CC1 (stereo unspecified) + CCN1C(C(=O)NC23CCC(C(=O)O)(CC2)CC3)C(c2cccc(Cl)c2F)C2(C(=O)Nc3cc(Cl)ccc32)C12CCCCC2 | % | 109

As a next step, examine the molecule that follows.
Problem: Identify measured viability, T/C corresponding to O=C(c1ccc(F)c(F)c1Nc1ccc(I)cc1F)N1CC(O)([C@@H]2CCCCN2)C1 + CCN1C(C(=O)NC23CCC(C(=O)O)(CC2)CC3)C(c2cccc(Cl)c2F)C2(C(=O)Nc3cc(Cl)ccc32)C12CCCCC2
Result: 102
